Molecular target: Y1R
Sequence (P25929 whole entry): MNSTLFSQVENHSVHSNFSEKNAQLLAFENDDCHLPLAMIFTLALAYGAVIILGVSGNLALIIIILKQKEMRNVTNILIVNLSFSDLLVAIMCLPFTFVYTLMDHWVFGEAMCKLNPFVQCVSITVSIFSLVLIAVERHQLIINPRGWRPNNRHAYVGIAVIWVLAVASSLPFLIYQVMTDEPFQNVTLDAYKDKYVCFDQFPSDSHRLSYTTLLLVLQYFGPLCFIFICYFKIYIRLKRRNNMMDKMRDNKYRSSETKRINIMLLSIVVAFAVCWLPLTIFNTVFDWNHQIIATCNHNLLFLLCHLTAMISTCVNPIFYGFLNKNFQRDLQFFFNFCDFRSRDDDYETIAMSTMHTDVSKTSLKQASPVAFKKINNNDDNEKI
Assay: cell-based or functional assay
READOUT_LABEL: Y1R EC50(nM) FLIPR

>>> observed_result("Ac-1,1-Aic-Nle-Pqa-Arg-His-Tyr-Leu-Asn-Leu-Val-Thr-Arg-Gln-Arg-Tyr-NH2 (Pk B) (peptide)")
2650
>>> observed_result("Ac-1,1-Aic-Nle-Pqa-Arg-His-Tyr-Leu-Asn-Leu-Val-Thr-Arg-Gln-Arg-Tyr-NH2 (Pk A) (peptide)")
1650

* * *

Biological target: Y1R
Assay: cell-based or functional assay
READOUT_LABEL: Y1R EC50(nM) FLIPR

>>> observed_result("Ac-Acp-Nle-Pqa-Arg-His-Tyr-Leu-Asn-Leu-Val-Thr-Arg-Gln-Arg-Tyr-NH2 (peptide)")
"> 5000 nM"
>>> observed_result("Ac-2,2-Aic-Nle-Pqa-Arg-His-Tyr-Leu-Asn-Leu-Val-Thr-Arg-Gln-Arg-Tyr-NH2 (peptide)")
"> 5000 nM"
>>> observed_result("Ac-Ach-Nle-Pqa-Arg-His-Tyr-Leu-Asn-Leu-Val-Thr-Arg-Gln-Arg-Tyr-NH2 (peptide)")
"> 5000 nM"
